Measured On: CYP1A1 (Homo sapiens)
Sequence (P04798 whole entry): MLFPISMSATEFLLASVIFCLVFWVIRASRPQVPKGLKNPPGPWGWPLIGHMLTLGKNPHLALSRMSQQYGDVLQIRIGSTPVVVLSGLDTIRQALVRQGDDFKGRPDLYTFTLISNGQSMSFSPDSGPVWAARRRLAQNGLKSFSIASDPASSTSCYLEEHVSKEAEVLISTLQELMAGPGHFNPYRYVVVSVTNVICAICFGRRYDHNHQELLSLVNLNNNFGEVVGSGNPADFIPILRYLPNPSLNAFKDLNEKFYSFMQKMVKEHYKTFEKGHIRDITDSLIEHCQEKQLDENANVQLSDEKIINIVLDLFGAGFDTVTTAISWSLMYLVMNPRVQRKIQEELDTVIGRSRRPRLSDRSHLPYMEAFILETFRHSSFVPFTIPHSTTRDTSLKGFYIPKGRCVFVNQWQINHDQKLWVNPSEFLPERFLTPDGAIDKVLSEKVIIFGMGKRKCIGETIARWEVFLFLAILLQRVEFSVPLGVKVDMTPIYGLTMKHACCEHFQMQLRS
Assay Explanation: Fluorometric HTS enzyme assay, recombinant CYP1A1 (CEC substrate)
Experimental Parameters: ±SEM, 3 replicate assays; 5 μM CEC
Readout Name: pIC50
Quick note: pIC50 means taking -log10 of the concentration in moles per liter.

Given the entry N#Cc1ccc(C(c2ccc(C#N)cc2)n2cncn2)cc1 , report its measured pIC50. 4.16
